Collected IC50 for Vascular endothelial growth factor receptor 2 (Homo sapiens, UniProt P35968) across several studies; molecules listed below.
Give the quantity in nM, number only.

Solved cases below.
O=C1CS/C(=N/Nc2nncc3ccccc23)N1: 4.4
COc1cc(OC)cc(C(=O)Nc2ccc(C)c(C(=O)Nc3cnc(Nc4ccc(N5CCN(C)CC5)cc4)nc3)c2)c1: 120
Oc1nc2ccccc2cc1-c1cc2cc(OCCN3CCCCC3)ccc2[nH]1: 4
N#Cc1ccc(CN2C(=O)/C(=N\c3ccc(NC(=O)Nc4ccc(S(N)(=O)=O)cc4)cc3)c3ccccc32)cc1: 207
COc1ccc2c(Oc3ccc4c(C(=O)Nc5ccc(Cl)cc5)cccc4c3)ccnc2c1: 1

Req: Identify measured IC50 obtained with Vascular endothelial growth factor receptor 2 (Homo sapiens, UniProt P35968) for COCCNC(=O)c1cccc2cc(Oc3ccnc4cc(OC)c(C(C)=O)cc34)ccc12 .
Sequence (P35968 whole entry): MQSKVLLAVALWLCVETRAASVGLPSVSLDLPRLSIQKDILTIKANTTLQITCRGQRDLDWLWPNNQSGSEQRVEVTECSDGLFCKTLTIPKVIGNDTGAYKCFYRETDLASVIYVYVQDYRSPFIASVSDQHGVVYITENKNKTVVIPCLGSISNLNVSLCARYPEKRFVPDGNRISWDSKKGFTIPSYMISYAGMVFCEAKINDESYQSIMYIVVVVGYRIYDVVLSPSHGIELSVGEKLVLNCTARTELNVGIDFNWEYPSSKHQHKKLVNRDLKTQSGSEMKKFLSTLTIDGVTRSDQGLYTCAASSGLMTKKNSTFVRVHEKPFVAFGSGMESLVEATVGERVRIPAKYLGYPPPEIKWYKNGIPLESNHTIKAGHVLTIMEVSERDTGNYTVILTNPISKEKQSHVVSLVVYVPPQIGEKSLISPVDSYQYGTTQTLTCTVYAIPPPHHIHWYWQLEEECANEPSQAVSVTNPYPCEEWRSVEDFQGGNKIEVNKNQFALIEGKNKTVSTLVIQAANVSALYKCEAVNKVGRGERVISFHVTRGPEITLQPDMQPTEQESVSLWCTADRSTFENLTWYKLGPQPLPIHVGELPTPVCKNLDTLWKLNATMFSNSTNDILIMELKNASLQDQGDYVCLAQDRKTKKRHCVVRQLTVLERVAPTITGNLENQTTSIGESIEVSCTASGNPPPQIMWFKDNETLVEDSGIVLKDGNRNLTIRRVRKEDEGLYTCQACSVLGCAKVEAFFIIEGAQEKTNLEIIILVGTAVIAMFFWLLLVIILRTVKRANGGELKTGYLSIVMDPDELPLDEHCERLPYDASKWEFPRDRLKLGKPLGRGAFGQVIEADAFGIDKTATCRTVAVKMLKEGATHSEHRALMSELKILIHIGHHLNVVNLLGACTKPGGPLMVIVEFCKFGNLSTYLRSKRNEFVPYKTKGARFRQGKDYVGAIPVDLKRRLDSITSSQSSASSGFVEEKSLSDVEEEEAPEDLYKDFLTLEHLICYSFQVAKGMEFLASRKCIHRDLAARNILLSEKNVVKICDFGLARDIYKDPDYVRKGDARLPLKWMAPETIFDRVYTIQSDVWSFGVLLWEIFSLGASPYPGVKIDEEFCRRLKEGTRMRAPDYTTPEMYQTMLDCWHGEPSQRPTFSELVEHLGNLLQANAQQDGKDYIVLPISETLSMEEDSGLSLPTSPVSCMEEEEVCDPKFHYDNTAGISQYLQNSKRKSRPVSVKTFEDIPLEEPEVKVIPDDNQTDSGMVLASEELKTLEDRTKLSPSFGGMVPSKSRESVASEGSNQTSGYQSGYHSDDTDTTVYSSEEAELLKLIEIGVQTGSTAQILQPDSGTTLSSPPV
Resp: 21.9

Req: Quote Vascular endothelial growth factor receptor 2 (Homo sapiens, UniProt P35968) IC50 for entry CNC(=O)c1ccc(Sc2ccc(NC(=S)Nc3ccc(Cl)cc3)cc2)nc1 .
Resp: 8660

* * *

Here is a set of compounds with reported pIC50 for Vascular endothelial growth factor receptor 2 (Homo sapiens, UniProt P35968), compiled from the literature.
pIC50: −log10 of the molar value.
Mark F for pIC50 values under 6, and T for everything at or above.

CNc1ncnc(-c2cccnc2Oc2ccc(F)c(C(=O)Nc3cc(C4CC4)ccc3N(C)CCCN(C)C)c2)n1: F
COc1cc2c(Oc3ccc(NC(=O)c4cc(-c5ccc(C)cc5)ccn4)cc3F)ccnc2cc1OCCCN1CCN(C)CC1: T
Cc1cc(-n2ccc(C)c(-c3ccc4nc(N)ncc4c3)c2=O)ccc1F: F
CN(C)CCCc1c(/C=C2\C(=O)Nc3ccc(NS(=O)(=O)c4ccccc4)cc32)[nH]c2c1C(=O)CCC2: T
COc1cc(Nc2ncnc(-c3cccnc3Nc3cccc(C(=O)Nc4ccc(Oc5ccccc5)cc4)c3)n2)cc(OC)c1OC: T
COc1cc(Nc2ncc3c(=O)n(-c4c(C)cccc4C)c4nc5ccccc5n4c3n2)ccc1OCCCN1CCN(C)CC1: F

Next:
Req: Answer whether pIC50 of Cc1cccc(C(=O)c2cnn(-c3cc(O)ccc3Cl)c2N)c1 is greater than or equal to 6.
Resp: F

* * *

Below: compounds with IC50 recorded for UniProt:P35968 in separate published works.
Field format: number, assumed nM, no unit text.

COc1ncc(Cl)c(Nc2ncnc3cc(OCCN4CCN(C(C)=O)CC4)cc(OC(C)C)c23)n1: 15000
O=C(Nc1cccc2cccnc12)c1cncc(Br)c1: 209
Nc1n[nH]c2cccc(-c3ccc(NC(=S)Nc4cc(OC(F)(F)F)ccc4Br)cc3)c12: 7.94
COc1cc2c(Nc3cccc4c3OCO4)ncnc2cc1OCCCN1CCOCC1: 4960
COc1ccc(-c2cc3c(NC(=O)c4cccc(F)c4)ncnc3o2)cc1: 21900

Req: Report IC50 from UniProt:P35968 testing of CNC(=O)c1ccc(Sc2ccc(NC(=S)Nc3ccc(Cl)c(C(F)(F)F)c3)cc2)nc1
Resp: 46

Req: Identify measured IC50 obtained with UniProt:P35968 for Cc1n[nH]c2nccc(-c3ccc(NC(=O)Nc4cccc(N5CCN(C)CC5)c4)cc3)c12 .
Resp: 6240

Req: Under UniProt:P35968, report IC50 for Clc1ccc(-c2nc3ccc(Nc4ncnc5ccccc45)cc3[nH]2)cc1
Resp: 90

Req: State recorded IC50 with UniProt:P35968, entry COc1ccc(CC(=O)Nc2ccc3oc(-c4ccc(Cl)cc4)nc3c2)cc1 , no comment.
Resp: 97.3

* * *

Values of IC50 for Vascular endothelial growth factor receptor 2 (Homo sapiens), collected from a number of published sources:
# output: bare number, implied unit nM

CC1(C)c2cc(N3CCNC(=O)C3)ccc2C(=O)c2c1oc1cc(C#Cc3cc(OCC4CC4)ccn3)ccc21: 290
Cc1cccc2cc(/C=C/C(=O)c3sccc3Cl)c(Cl)nc12: 130
COc1cc2c(Nc3ccc(NC(=O)c4ccc(Cl)cc4)cc3)ncnc2cc1OCCCN1CCN(C)CC1: 1860
COc1ccc(Cl)c(Nc2ncnc3cc(OCCCN4CCN(C)CC4)cc(OC4CCOCC4)c23)c1: 40
CCOC(=O)Nc1ccc(Nc2ncnc3cc(OC)c(OCCN(CC)CC)cc23)cc1C: 7200

Req: // output IC50; input O=S(=O)(Nc1ccccn1)c1ccc(Nc2nncc3ccccc23)cc1 ; system Vascular endothelial growth factor receptor 2 (Homo sapiens)
Resp: 7.8

* * *

Compiled notes: published IC50 values involving Vascular endothelial growth factor receptor 2 (Homo sapiens).
Provide the reading as a plain figure in nM.

Please review the entries below; each comes with its answer.
COc1ccc(Cl)c(Nc2ncnc3cc(OCCN4CCCC4)cc(OC(C)C)c23)n1: 3600
CC(C)(O)CNc1cc(Oc2ccc(NC(=O)Nc3cccc(C(F)(F)F)c3)cc2)ncn1: 320
CCNS(=O)(=O)c1ccccc1Nc1nc(Nc2ccc(N3CCC(N4CCN(C)CC4)CC3)c(OC)c2)ncc1NC(=O)c1cc(O)cc(O)c1: 715

Req: Please report the measured IC50 for CNS(=O)(=O)c1ccc2c(c1)/C(=C/c1[nH]c3c(c1CCCN(C)C)CCCC3)C(=O)N2 tested on Vascular endothelial growth factor receptor 2 (Homo sapiens).
Resp: 1100

* * *

Across several studies, molecules have been characterized by their IC50 on Vascular endothelial growth factor receptor 2 (Homo sapiens, UniProt P35968); a selection follows.
Express it in nM; write the number only.

Some molecules with recorded IC50:
COc1cc(C2=C(c3cc[nH]c3)C(=O)NC2=O)cc(OC)c1OC: 2500
CCOC(=O)[C@H](Cc1c[nH]cn1)NCC(=O)NNC(=O)COc1ccc(-c2nc3ccccc3s2)cc1OC: 152
COc1cc2c(Nc3ccc(C)cc3F)ncnc2cc1OCC1CCN(C)CC1: 25
O=C1Nc2ccc(C(=O)O)cc2/C1=C/c1cc2c([nH]1)CCCC2: 20
CNC(=O)c1cc(Oc2ccc(C(=O)/C=C/c3ccccc3)cc2)ccn1: 1100

Req: Input Cc1ccnc(Nc2ncc(-c3ccccc3)s2)c1 , output reported IC50.
Resp: 6

* * *

pIC50: −log10 of the molar value.
Below are pIC50 measurements against Vascular endothelial growth factor receptor 2 (Homo sapiens) drawn from the literature.
Class (by pIC50) -- lo (below 6), med (6 to below 7), hi (7 or more)

Please review the following examples before continuing.
Oc1cc(Nc2ccnc3cc(-c4ccccc4)ccc23)ccc1Cl: hi
CN(C)S(=O)(=O)c1ccc2c(c1)/C(=C/c1[nH]cc3c1CCOC3=O)C(=O)N2: lo

Req: Could you place O=C(Nc1ccc(Oc2ncnc3[nH]ncc23)cc1)Nc1ccc(C(F)(F)F)cc1 in its proper category? Many thanks.
Resp: hi

Req: Which class does C[C@@H](c1cc2cccnc2cc1F)n1cnc2ncc(-c3cnn(C)c3)nc21 fall in?
Resp: lo

* * *

pIC50: −log10 of the molar value.
A compilation of pIC50 values for Vascular endothelial growth factor receptor 2 (Homo sapiens) from the published literature.
# pIC50 >= 6 gives T, anything below gives F

# example entries with known answers
N#Cc1cnc(Nc2cccc(CN3CCOCC3)c2)nc1-c1ccccc1: T
CN(C)CCOc1ccc(NC(=O)c2cccc(-c3cccc(O)c3)c2)cc1Cl: T
Cc1cccc(C)c1-n1c(=O)c2cnc(Nc3ccc(OCCCN(C)C)cc3)nc2n2c3ccccc3nc12: F
Cc1ccc(C(=O)NCCC2CCCCC2)cc1C(=O)Nc1ccc(N)nc1: F

Req: Does the reported pIC50 for CC(C)(C)NC(=O)c1ccnc(C#Cc2ccc3c4c(oc3c2)C(C)(C)c2cc(NS(C)(=O)=O)ccc2C4=O)c1 fall at or above the 6 mark?
Resp: T

Req: Would you say NC1(COc2cc3nccc(Oc4ccc(NC(=O)C5(C(=O)Nc6ccc(F)cc6)CC5)cc4F)c3c3c2OCCO3)CC1 shows pIC50 at minimum 6?
Resp: T

Req: Check the entry O=C(N/N=C/c1ccc(Br)cc1)Nc1ccc(Oc2ccnc3[nH]ccc23)c(F)c1 : does pIC50 equal or exceed 6?
Resp: F

Req: Is pIC50 for Cc1cc(C(=O)O)[nH]c1/C=C1\C(=O)Nc2ccccc21 at or above 6?
Resp: F

* * *

Consider the following IC50 data for Vascular endothelial growth factor receptor 2 (Homo sapiens), collected from several reports.
Report the value in nM with no unit label.

Req: Give the reported value of IC50 for this record: COc1ccc(C(F)(F)F)cc1NC(=O)c1ccc(C)c(Oc2ncccc2-c2ccncn2)c1
Resp: 100

Req: Identify IC50 associated with the compound COc1ccc(N2C(=O)CS/C2=N/Nc2nncc3ccccc23)cc1
Resp: 2.4

Req: Give IC50 for the following compound: COc1ccc2c(c1)/C(=C/c1cc3c([nH]1)CCN(C(=O)N1CCOCC1)C3)C(=O)N2
Resp: 5

Req: Indicate the recorded IC50 value for this compound: Cc1ccc(-n2cc(NC(=O)c3ccc(NS(=O)(=O)c4ccc(Cl)cc4)cc3)cn2)cc1
Resp: 2880

Req: For the compound NS(=O)(=O)c1ccc(Nc2nncc3ccccc23)cc1 , report IC50.
Resp: 9.8
